Test system: platelet aggregation induced by collagen
protocolDetails: Collagen-induced platelet aggregation, whole blood aggregometry
Assay type: cell-based, human
runConditions: Platelet; human whole blood; read-out: IC25 (Mean ± SD, μM) on Collagen-Induced Platelet Aggregation
Classification field: fulfilled = IC25 at or over 7 µM; not fulfilled = IC25 under 7 µM.

molecule="Cc1ccc(O)c(O)c1 [4-methylcatechol, reference compound]" classassignment="not fulfilled"
molecule="Oc1cc(Cl)c(Cl)cc1O [4,5-dichlorocatechol]" classassignment=fulfilled
molecule="CC(C)c1cccc(O)c1O [3-isopropylcatechol]" classassignment=fulfilled
molecule="CC(=O)Oc1ccccc1C(=O)O [ASA, acetylsalicylic acid, reference compound]" classassignment=fulfilled
molecule="CCc1ccc(O)c(OC)c1 [2-methoxy-4-ethylphenol]" classassignment="not fulfilled"
molecule="COc1cc(C)ccc1O [2-methoxy-4-methylphenol]" classassignment=fulfilled
molecule="Oc1ccc(F)cc1O [4-fluorocatechol]" classassignment="not fulfilled"
molecule="CCc1ccc(O)c(O)c1 [4-ethylcatechol]" classassignment="not fulfilled"

* * *

// reported IC50 for each item listed
System: platelet aggregation triggered by AA
protocolDetails: Arachidonic acid (AA)-induced platelet aggregation, whole blood aggregometry
Format: cell-based, human
runConditions: Platelet; human whole blood; read-out: IC50 (Mean ± SD, μM) on Arachidonic Acid-induced Platelet Aggregation
readout: IC50 (µM)

compound=Oc1ccccc1O readout=IC50 measurednumber=4
compound=CCc1ccc(O)c(OC)c1 readout=IC50 measurednumber=1.37
compound=Oc1ccc(F)cc1O readout=IC50 measurednumber=1.82
compound=CCc1ccc(O)c(O)c1 readout=IC50 measurednumber=1.29
compound=Oc1ccc(Cl)cc1O readout=IC50 measurednumber=3.66
compound=COc1cccc(O)c1O readout=IC50 measurednumber=7.92
compound=O=[N+]([O-])c1ccc(O)c(O)c1 readout=IC50 measurednumber=13.3
compound=Oc1cccc(F)c1O readout=IC50 measurednumber=1.74
compound=Nc1ccccc1O readout=IC50 measurednumber=6.65
compound=CC(C)(C)c1ccc(O)c(O)c1 readout=IC50 measurednumber=7.24
compound=Oc1cc(Cl)cc(Cl)c1O readout=IC50 measurednumber=13.5
compound="Cc1ccc(O)c(O)c1 [4-methylcatechol, reference compound]" readout=IC50 measurednumber=2.59

* * *

// reported IC50 for each item listed
Tested on: platelet aggregation triggered by AA
protocolDetails: Arachidonic acid (AA)-induced platelet aggregation, whole blood aggregometry
Assay type: cell-based, human
runConditions: Platelet; human whole blood; read-out: IC50 (Mean ± SD, μM) on Arachidonic Acid-induced Platelet Aggregation
readout: IC50

structurestring=C=CCc1ccc(OC)c(OC)c1 experimentalsystem="platelet aggregation triggered by AA" readout=IC50 result="~61 µM"
structurestring=COc1ccc(C)c(OC)c1 experimentalsystem="platelet aggregation triggered by AA" readout=IC50 result="~32 µM"
structurestring=Nc1ccc(O)c(O)c1 experimentalsystem="platelet aggregation triggered by AA" readout=IC50 result="~21 µM"
